- MEASUREMENT_PROTOCOL: qHTS Assay for Lipid Storage Modulators in Drosophila S3 Cells;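 note: cells counted by Cell Tracker Red CMTPX staining in the red channel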
- EXPERIMENTAL_PARAMETERS: BODIPY lipid droplet fluorescence, 18-24 h, cells fed with added oleic acid; measured here: cell count max response
The whole screen tested about 320,000 compounds, of which about 2,100 (0.66%) were called active. Roughly 53% stayed inconclusive and do not appear here. The sample as a whole holds a higher share of actives than the screen did.
Listed here: items and their measured cell number change.
The response must be a number in % with no trailing unit.

[[record]]
compound = "CN(C)S(=O)(=O)N(CCN1CCOCC1)Cc1ccccc1F"
experimental_result = 6.57

[[record]]
compound = "CCc1ccc(NC(=S)N(CCN2CCOCC2)Cc2ccccc2F)cc1"
experimental_result = 13.9


Inquiry: Which cell number change value is on record for COc1ccc(CN2CCN(Cc3cc4ccccc4o3)CC2CCO)c(F)c1 (stereo not given) ?
Reply text: 5.21

Inquiry: Tell me the measured cell number change of CN1C(=O)/C(=C/c2ccccc2Cl)Sc2ccc(C(=O)NCc3cccnc3)cc21 , please.
Reply text: -7.77

Inquiry: What value of measured cell number change is listed for Cn1c(CCN2CCN(c3ccccn3)CC2)nc2cc(NS(=O)(=O)c3ccccc3)ccc21 ?
Reply text: 8.74

Inquiry: Endpoint output: cell number change of C/C(=N\NC(=O)c1cccc([N+](=O)[O-])c1)c1cccc(NC(=O)C2CC2)c1 . Value?
Reply text: -1.94

Inquiry: I have this compound here, Nc1cccc2c1C(=O)N(C(=O)/C=C/c1cccc(F)c1)C2=O , and I need its recorded cell number change.
Reply text: -23.5

Inquiry: Return reported cell number change; argument: CCC(Sc1nc2ccccc2c(=O)[nH]1)C(=O)O (stereo not given)
Reply text: -2.97

Inquiry: Requested field: cell number change. Item: COc1ccc(-n2c(SCC(=O)NCC3CCCO3)nc3c([nH]c4ccccc43)c2=O)cc1OC (stereo not given)
Reply text: -13.6

Inquiry: Name the reported cell number change value associated with the compound COc1ccc(OC)c(/C=C/C(=O)N2CCN(S(=O)(=O)c3cc(C)ccc3C)CC2)c1
Reply text: 6.55
